- EXPERIMENTAL_SYSTEM: T1, human IL-12 (human, UniProt P29460 23-328; P29459 23-219)
- T1 construct: Recombinant (Peprotech); FLAG-tagged IL-12 in the flow cytometry assays, biotinylated in the IL-12Rβ2 assay; also called hIL-12
- T1 sequence 1: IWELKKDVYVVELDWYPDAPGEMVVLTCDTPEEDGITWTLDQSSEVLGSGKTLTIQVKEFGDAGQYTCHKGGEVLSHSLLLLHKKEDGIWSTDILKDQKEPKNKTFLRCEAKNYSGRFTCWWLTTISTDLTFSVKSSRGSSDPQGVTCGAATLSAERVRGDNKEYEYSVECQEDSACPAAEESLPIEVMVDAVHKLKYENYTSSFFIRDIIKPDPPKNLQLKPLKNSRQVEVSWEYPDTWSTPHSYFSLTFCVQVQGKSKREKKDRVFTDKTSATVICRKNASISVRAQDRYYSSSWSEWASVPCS
- T1 sequence 2: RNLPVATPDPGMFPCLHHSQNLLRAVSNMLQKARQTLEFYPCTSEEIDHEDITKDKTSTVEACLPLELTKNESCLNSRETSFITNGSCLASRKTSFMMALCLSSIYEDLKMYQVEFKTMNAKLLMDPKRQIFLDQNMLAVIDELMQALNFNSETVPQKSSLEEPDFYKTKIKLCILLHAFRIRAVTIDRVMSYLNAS
- PROCEDURE_TEXT: ELISA, coated IL-12
PROPERTY_MEASURED: binding result

1) Antibody 17 (antibody, human IgG1, kappa, V domains shown) VH: EVQLQQSGADLVRSGASIKLSCTASGFNIKDYYMHWVKQRPEQGLEWIGWIDPENGDTEYAPKFQGKATMTADTSSNTAYLQLSSLTSEDTAVYYCNAFKELRYFDVWGAGTTVTVSS VL: DIVLTQSPATLSVTPGDSVSLSCRASQSISINLHWYQQKSHESPRLLIKFASQSISGIPSRFSGYGSGTDFTLSINSVETEDFGRYFCQQSNSWPLTFGAGTKLELKR = binds
2) Antibody 12 (antibody, human IgG1, kappa, V domains shown) VH: EVQLQQSGADLVRSGASIKLSCTASGFNIKDYYMHWVKQRPEQGLEWIGWIDPENGDTEYAPKFQGKATMTADTSSNTAYLQLSSLTSEDTAVYYCNAHKELRYFDVWGAGTTVTVSS VL: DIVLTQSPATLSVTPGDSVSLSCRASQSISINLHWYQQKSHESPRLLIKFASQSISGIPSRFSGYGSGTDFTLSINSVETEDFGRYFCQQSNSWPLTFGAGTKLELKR = binds
3) Antibody 9 (antibody, human IgG1, kappa, V domains shown) VH: EVQLQQSGADLVRSGASIKLSCTASGFNIKDYYMHWVKQRPEQGLEWIGWIDPENGDTEYAPKFQGKATMTADTSSNTAYLQLSSLTSEDTAVYYCNAEKELRYFDVWGAGTTVTVSS VL: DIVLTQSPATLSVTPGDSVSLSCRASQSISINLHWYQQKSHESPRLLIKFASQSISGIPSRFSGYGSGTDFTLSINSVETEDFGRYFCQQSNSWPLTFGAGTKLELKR = binds
